# target: Human GPA33 on GPA33+ colorectal cancer cell lines (Colo 205, LS 174T, SW 1222) (human) (UniProt Q99795)
# Sequence (Q99795 22-319 limits assumed): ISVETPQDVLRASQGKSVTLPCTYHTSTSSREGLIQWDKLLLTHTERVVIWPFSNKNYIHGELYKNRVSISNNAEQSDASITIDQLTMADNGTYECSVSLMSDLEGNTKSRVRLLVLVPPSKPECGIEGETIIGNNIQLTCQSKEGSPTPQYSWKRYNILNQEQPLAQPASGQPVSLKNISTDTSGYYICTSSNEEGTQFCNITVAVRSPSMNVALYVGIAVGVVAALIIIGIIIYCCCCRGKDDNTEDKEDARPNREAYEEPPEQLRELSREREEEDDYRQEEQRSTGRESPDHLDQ
# assay_notes: cell binding to LS174T Luc cells; IgG format
assay_metric: EC50 (µg/mL)
Reply with just the number (in µg/mL).

Note down EC50 recorded for G3A_VK2+VH1 (antibody, IgG1, V domains shown, part only, IgG1 constant regions not given) VH: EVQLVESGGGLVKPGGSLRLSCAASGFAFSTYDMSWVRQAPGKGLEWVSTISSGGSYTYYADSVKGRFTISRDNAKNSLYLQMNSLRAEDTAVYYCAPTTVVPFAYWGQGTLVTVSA VL: DIQMTQSPSSLSTSVGDRVTITCKASQNVRTVVAWYQQKPGKAPKTLIYLASSLQSGVPSRFSGSGSGTEFTLTISNVQPEDFADYFCLQHWSYPLTFGSGTKLEVK
1.2

Now let's try a different one.
State its EC50: G3A_VK4+VH2 (antibody, IgG1, V domains shown, part only, IgG1 constant regions not given) VH: EVQLVESGGGLVKPGGSLRLSCAASGFAFSTYDMSWVRQAPGKGLEWVATISSGGSYTYYLDSVKGRFTISRDSAKNSLYLQMNSLRAEDTAVYYCAPTTVVPFAYWGQGTLVTVSA VL: DIQMTQSPSSLSASVGDRVTITCKASQNVRTVVAWYQQKPGKAPKTLIYLASNRHTGVPSRFSGSGSGTEFTLTISNLQPEDFATYYCLQHWSYPLTFGSGTKLEVK
0.364
